Reported TGI values follow for various compounds
System: HOP-18 NSCLC
Experiment: NCI tumour cell line growth inhibition, 48 h

Here are 6 compounds together with their reported answers.
- CCCN1CN(C(C(=O)N[C@@H]2C(=O)N3C2SC(C)(C)C3C(=O)O)c2ccc(O)cc2)CSC1=S (stereo partly specified): > 100 µM
- CN[C@@H](C)[C@@H](NC)c1ccccc1: > 100 µM
- COc1cc(C=O)c(-c2cc(OC)c(OC)cc2C=O)cc1OC: > 100 µM
- O=[N+]([O-])c1ccc(N2N=C(c3ccc(NCc4nc5ccccc5[nH]4)cc3)CC2c2ccco2)cc1 (stereo unspecified): > 100 µM
- O=P1(c2ccccc2)CCCCC1: > 100 µM
- CC(C)C(=O)NS(=O)(=O)c1ccccc1: > 100 µM

Task: Quick one: TGI for O=C(O)CC(NC(=O)CP(=O)(O)O)C(=O)O (stereo unspecified) ?
Result: > 9690 µM

Task: Quick one: TGI for COC1(OC)CC2C(=O)N(Cc3ccccc3)C1C=C2S(=O)(=O)c1ccccc1 (stereo unspecified) ?
Result: 31.9 µM

Task: Quick one: TGI for `Cc1c(/C=N/NC(=O)c2ccc(Cl)cc2)c(=O)n(-c2ccccc2)n1C` ?
Result: > 100 µM

Task: Quick one: TGI for `COc1cc(N=Nc2cccc(S(=O)(=O)O)c2)ccc1N=Nc1ccc(/C=C/c2ccc(-n3on3-c3ccc(/C=C/c4ccc(N=Nc5ccc(N=Nc6cccc(S(=O)(=O)O)c6)cc5OC)cc4S(=O)(=O)O)c(S(=O)(=O)O)c3)cc2S(=O)(=O)O)c(S(=O)(=O)O)c1` ?
Result: > 100 µM

Task: Quick one: TGI for O=C1NP23(OCCO2)Oc2ccccc2C3(C(F)(F)F)O1 (stereo unspecified) ?
Result: > 100 µM
